System: OCI-AML2;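 further: after 48 h exposure read by CellTiter-Glo luminescence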
Experiment: cell viability relative to vehicle control; higher = less cytotoxic
Details: 10 µM; SRSF2 genotype: wt/wt
Structures can show the parent of a compound that is named as a salt.

{"Molecule": "C[C@@H]1CCC=C2C(=O)C[C@H]3OOC(C)(C)[C@H]3[C@]21C", "cell viability [%]": 102}
{"Molecule": "Cn1cc(C2=C(c3cn(C4CCN(Cc5ccccn5)CC4)c4ccccc34)C(=O)NC2=O)c2ccccc21", "cell viability [%]": 111}
{"Molecule": "C[C@H]1CC[C@@H]2N(C1)C[C@H]1[C@@H]3C[C@H]4[C@@H](CC(=O)[C@H]5C[C@@H](O)CC[C@@]54C)[C@@H]3CC[C@H]1[C@]2(C)O", "cell viability [%]": 107}
{"Molecule": "O=C1CCC[C@@H]2[C@H]3CCCN4CCC[C@@H](CN12)[C@@H]34 [Matrine ((+)-Matrine)]", "cell viability [%]": 103}
{"Molecule": "C=C1CCC2C(/C=C(\\C)C(=O)C3(OC(C)=O)CC(C)C(OC(=O)c4ccccc4)C3C1OC(C)=O)C2(C)C (stereo unspecified)", "cell viability [%]": 22.4}
{"Molecule": "COC(=O)c1ccccc1C(=O)OC [Dimethyl phthalate]", "cell viability [%]": 80.7}
{"Molecule": "O=c1ccc2c(O)c3ccoc3cc2o1", "cell viability [%]": 97.5}
{"Molecule": "O=C1C=CC[C@@H]2[C@H]3CCCN4CCC[C@@H](CN12)[C@@H]34", "cell viability [%]": 108}
{"Molecule": "COc1ccc2c(c1OC)CN1CCc3cc4c(cc3C1C2)OCO4 (stereo unspecified) [Tetrahydroberberine]", "cell viability [%]": 72.8}
{"Molecule": "C[C@H]1CCC/C=C/[C@@H]2C[C@H](O)C[C@H]2[C@H](O)/C=C/C(=O)O1", "cell viability [%]": 18.7}
{"Molecule": "COc1ccc(/C=C/c2cc(OC)cc(OC)c2)cc1 [3,4',5-Trimethoxy-trans-stilbene]", "cell viability [%]": 36.4}
{"Molecule": "O=C(O)C(=O)CBr", "cell viability [%]": 93.9}
{"Molecule": "NCC(=O)O.[C-]#[O+].[C-]#[O+].[C-]#[O+].[Cl][Ru]", "cell viability [%]": 114}
{"Molecule": "CN1C(=O)CCS(=O)(=O)C1c1ccc(Cl)cc1 (stereo unspecified)", "cell viability [%]": 95.6}
{"Molecule": "C[C@]12CC[C@H](O)C[C@@]1(O)CC[C@@H]1[C@@H]2CC[C@]2(C)[C@@H](C3=CC(=O)OC3)CC[C@]12O", "cell viability [%]": 8.91}
{"Molecule": "CCC1=C[C@H]2CN3CCc4c([nH]c5ccccc45)[C@](C(=O)OC)(C2)[C@H]13", "cell viability [%]": 96.2}
{"Molecule": "O=C(CBr)N1CC([N+](=O)[O-])([N+](=O)[O-])C1", "cell viability [%]": 114}
{"Molecule": "Cc1sc2c(c1C)C(c1ccc(Cl)cc1)=N[C@@H](CC(=O)Nc1ccc(O)cc1)c1nnc(C)n1-2", "cell viability [%]": 32.3}
{"Molecule": "Cc1cc(SCc2sc(-c3ccc(C(F)(F)F)c(F)c3)nc2C)ccc1OCC(=O)O", "cell viability [%]": 101}
{"Molecule": "Cn1c(CCCC(=O)O)nc2cc(N(CCCl)CCCl)ccc21 [Bendamustine HCL]", "cell viability [%]": 83}
{"Molecule": "O=C(O[C@H]1C[C@H]2CC[C@@H](C1)[N+]21CCCC1)C(O)(c1ccccc1)c1ccccc1 [Trospium chloride (Sanctura)]", "cell viability [%]": 102}
{"Molecule": "C=C[C@H]1CN2CC[C@@]3(C(=O)Nc4ccccc43)[C@@H]2C[C@@H]1/C(=C\\OC)C(=O)OC", "cell viability [%]": 83.3}
{"Molecule": "CN1C2CC(OC(=O)C(CO)c3ccccc3)CC1C(O)C2 (stereo unspecified)", "cell viability [%]": 104}
{"Molecule": "N#CC(C#N)=Cc1ccc(O)c(O)c1", "cell viability [%]": 82}
{"Molecule": "CN1C2CCC1CC(O)C2 (stereo unspecified)", "cell viability [%]": 108}
{"Molecule": "O=Cc1ccccc1", "cell viability [%]": 88.3}
{"Molecule": "c1cc2c(cc1[C@H]1OC[C@H]3[C@@H]1CO[C@H]3c1ccc3c(c1)OCO3)OCO2", "cell viability [%]": 89.4}
{"Molecule": "Cc1cc(C(C#N)c2ccc(Cl)cc2)c(Cl)cc1NC(=O)c1cc(I)cc(I)c1O (stereo unspecified)", "cell viability [%]": 110}
{"Molecule": "C[C@]12CC[C@H](O)CC1=CC[C@@H]1[C@@H]2CC[C@]2(C)C(=O)CC[C@@H]12 [Dehydroepiandrosterone (DHEA)]", "cell viability [%]": 93.2}
{"Molecule": "O=C(O)CCCCCCCCCO [10-Hydroxydecanoic acid]", "cell viability [%]": 92.7}
{"Molecule": "Cc1cccc([C@H](C)c2c[nH]cn2)c1C [Dexmedetomidine HCl (Precedex)]", "cell viability [%]": 110}
{"Molecule": "Cn1c(COP(=O)(NCCBr)NCCBr)cnc1[N+](=O)[O-]", "cell viability [%]": 40.1}
{"Molecule": "C=CC(=C)C", "cell viability [%]": 109}
{"Molecule": "O=P1(NCCCl)OCCCN1CCCl (stereo unspecified) [Ifosfamide]", "cell viability [%]": 98}
{"Molecule": "COc1cc2c(cc1O)C[C@H]1c3c(cc(O)c(OC)c3-2)CCN1C", "cell viability [%]": 91}
{"Molecule": "CN1CCC(c2c[nH]c3ccc(O)cc23)CC1", "cell viability [%]": 105}
